Numbers sourced from patent US20240400689A1.

- TARGET_OR_TEST_SYSTEM: T1, Macaca fascicularis CD276 (Macaca fascicularis)
- T1 construct: whole, on cells; also called cynomolgus monkey CD276; cynoCD276
- PROCEDURE_SUMMARY: FACS on CHO-S-cynoCD276 cells
ENDPOINT_NAME: FACS MFI
# print the numeric value only

Returns the measured FACS MFI for the input binder. Input: 8-B4-F5-E11 (antibody, V domains shown, mouse monoclonal antibody (hybridoma)) VH: QVQLQQPGAELVKPGASVKLSCKASGDTFTSYWMHWVKQRPGQGLEWIGMIHPDSGTRNYNEKVMSKATLNVDKSSSTAYLHLSSLTSEDSAVYYCSRSYGSRLAWFAYWGQGTLVTVSA VL: QAVVTQESALTTSPGETVTLTCRSSTGAVTTSNFANWVQEKPDHLFTGLIGGTNNRAPGVPARFSGSLIGDKAALTITGAQTEDEAVYFCALWYTNHFIFGSGTKVTVL
58600

Next binder, FACS MFI to be filled in.
Returns the measured FACS MFI for the input binder. Input: 9-G2-H6-E4 (antibody, V domains shown, mouse monoclonal antibody (hybridoma)) VH: EVQLQQSGPDLVKPGASVKISCKASGYSFTGYFMNWVKQRHGKSLEWIGYINPNNGDTIYNQKFKGKATLTVDKSSSTAHMELLSLTSEDSAVYYCGRGGLPFGALDYWGQGTSVTVSS VL: DIVMSQSPSSLAVSVGEKVNMSCKSSQSLLYSRNQKNYLAWNQQKPGQSPKLLIYWASARESGVPDRFTGSGSGTDFTLTISSVKAEDLAAYYCQQYHSYPYTFGGGTKLELK
5400
